Target: T1, PC2, P16519
T1 chain: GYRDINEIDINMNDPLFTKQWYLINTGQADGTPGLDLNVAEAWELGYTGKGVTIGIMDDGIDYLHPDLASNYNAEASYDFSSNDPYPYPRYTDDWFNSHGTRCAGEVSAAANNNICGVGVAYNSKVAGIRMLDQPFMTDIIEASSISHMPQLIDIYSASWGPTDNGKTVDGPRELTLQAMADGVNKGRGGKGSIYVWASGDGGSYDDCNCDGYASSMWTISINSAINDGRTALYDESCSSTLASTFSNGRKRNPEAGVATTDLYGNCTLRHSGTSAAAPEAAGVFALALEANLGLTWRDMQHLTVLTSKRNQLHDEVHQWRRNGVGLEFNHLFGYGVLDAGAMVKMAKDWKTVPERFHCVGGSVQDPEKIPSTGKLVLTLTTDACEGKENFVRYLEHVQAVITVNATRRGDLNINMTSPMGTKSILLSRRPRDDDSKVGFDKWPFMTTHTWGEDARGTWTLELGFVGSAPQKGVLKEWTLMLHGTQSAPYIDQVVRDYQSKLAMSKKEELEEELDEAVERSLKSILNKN
Conditions: modification not given
pKi: −log10 of the molar value.
Endpoint name: pKi

binder="Ac-HRKRRR-NH2 [Ac-HRKRRR-NH2]" endpoint_name=pKi recorded_measurement=3.51
